Hey, just so you know, these numbers are from PubChem BioAssay (NCI).

TGI reference
Test system: CCRF-CEM leukemia
Test: NCI tumour cell line growth inhibition, 48 h
Kindly provide the numeric value in µM only, without the unit symbol.

Below: 3 compounds and their reported TGI.
# Compound, System Under Test, Unit Annotation, TGI
measured = [
    ("O=C(/C=C/c1cccnc1)/C=C/c1cccnc1", "CCRF-CEM leukemia", "µM", 0.821),
    ("CCOP(=O)(OCC)OC1CC(n2cnc3c(N(CC)CC)ncnc32)OC1CO[Si](C)(C)C(C)(C)C (stereo not given)", "CCRF-CEM leukemia", "µM", 41.2),
    ("COc1ccc(C2=NN(c3ccc(S(N)(=O)=O)cc3)C(c3ccc(Cl)cc3)C2)c(O)c1 (stereo not given)", "CCRF-CEM leukemia", "µM", 6.92),
]

Next up:
TGI on CCRF-CEM leukemia for COc1cccc2c(=O)c3c(O)c4cc(N(C)C)ccc4c(OC(C)=O)c3oc12 is 13.8

====

Tested on: MALME-3M melanoma
Assay: NCI tumour cell line growth inhibition, 48 h
Experimental Endpoint: TGI (µM)
Kindly provide the numeric value in µM only, without the unit symbol.

# Molecule, System Under Test, Value Reported
data = [
    ("COc1ccc(C(NCCNC(c2ccc(OC)c(OC)c2)c2cc3c(cc2O)OCO3)c2cc3c(cc2O)OCO3)cc1OC (stereo not given)", "MALME-3M melanoma", 15.4),
]

TGI on MALME-3M melanoma for O=C(CCl)Nc1ccc(-c2nc3ccccc3s2)cc1 is 4.13

TGI on MALME-3M melanoma for COc1cc2nc(-c3ccc(Cl)cc3)cc(OCCCN3CCC(O)CC3)c2cc1OC is 4.95

====

Tested on: SK-MEL-28 melanoma
Test: NCI tumour cell line growth inhibition, 48 h
Experimental Endpoint: TGI

# Molecule, TGI
data = [
    ("CCN1N=CSC12C(=O)N(c1ccccc1)C(=O)N2c1ccccc1 (stereo not given)", "> 100 µM"),
    ("O=C1NCC2=C1CCC1c3ccccc3CCN21 (stereo not given)", "> 100 µM"),
    ("COc1cc(/C=C2\\N=C(c3ccccc3)N(/N=C/c3cc4cc(C)ccc4nc3Cl)C2=O)ccc1O", "> 100 µM"),
]

So for c1ccc(COc2ccc(Nc3ncnc4ccc(-c5ccco5)cc34)cc2)cc1 , the logged TGI turned out to be > 25 µM

So for COC(=O)C12C3C=CC(O3)C1C1C=CC2O1 (stereo not given) , the logged TGI turned out to be > 100 µM

So for CC(=O)NC1C(OCc2ccccc2)OC(CO)C(O)C1OC(C)C(=O)NC(C(=O)NC(CCC(=O)Nc1ccc2c(c1)CN1C(=O)c3ccccc3C1=N2)C(N)=O)C(C)C (stereo not given) , the logged TGI turned out to be > 100 µM

So for CC[C@]12C=CCN3CC[C@]4(C(=C(C(=O)OC)C1)Nc1ccccc14)[C@@H]32 , the logged TGI turned out to be 17.9 µM

So for O=C1c2cc([N+](=O)[O-])cnc2S(=O)(=O)N1c1ccc(Oc2ccccc2)cc1 , the logged TGI turned out to be > 100 µM

So for Nc1nc(SCC(=O)c2ccccc2)nc2nc3c(c(-c4ccccc4)c12)CCCC3 , the logged TGI turned out to be 61.9 µM

So for C#CCSc1nnnn1-c1ccc(Br)c(C)c1 , the logged TGI turned out to be > 100 µM

So for CCOC(=O)C12CN(C34CC5CC(CC(C5)C3)C4)CC(C(=O)OCC)(C1=O)C(c1ccccc1)OC2c1ccccc1 (stereo not given) , the logged TGI turned out to be > 100 µM

So for CC1=NN(c2ccccc2Cl)C2(C1)SCC(=O)N2c1nc2ccccc2s1 (stereo not given) , the logged TGI turned out to be > 100 µM

So for CCN(CC)CCSc1nc2c([N+](=O)[O-])cccc2[nH]1 , the logged TGI turned out to be > 100 µM

So for CCCCCNC(=O)C1C(=O)N(CCCCC)C(=O)/C1=N\N (stereo not given) , the logged TGI turned out to be > 100 µM

So for CNC1=C(C)C(=O)C2=C(C1=O)C(COC(N)=O)C1(OC)C3NC3CN21 (stereo not given) , the logged TGI turned out to be 6.43 µM

So for COC(=O)C1(Cc2ccccc2C)Cc2ccc(C)cc2C1=O (stereo not given) , the logged TGI turned out to be > 100 µM

So for O=C(Nc1ccc(-n2cc(-c3ccncc3)c(-c3ccc(O)c(Cl)c3)n2)cc1)c1ccc(Cl)c(Cl)c1 , the logged TGI turned out to be > 32.5 µM

So for COc1ccc(C(NCCNC(c2ccc(OC)c(OC)c2)c2cc3c(cc2O)OCO3)c2cc3c(cc2O)OCO3)cc1OC (stereo not given) , the logged TGI turned out to be 3.55 µM

So for Cc1cc(C)c2c(c1C)CN1CN2Cc2c(C)c(C)cc(C)c21 , the logged TGI turned out to be > 100 µM

So for COc1cccc(/C=N/[N-]C(N)=O)c1[O-].[OH3+].[Zn+2] , the logged TGI turned out to be > 100 µM
